composite z-score values for the compounds below.
- experimentalSystem: Calmodulin-1 (Homo sapiens)
- procedureSummary: small molecules binding calmodulin-1 with EGTA – biochemical, small-molecule microarray, Cy5-labelled CALM1, profiling panel (AID 1111);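 note: labelled calmodulin applied in Tris saline Tween buffer holding calcium plus EGTA and DTT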
- experimentalParameters: Cy5-CALM1 binding fluorescence, higher = more signal
Number only, no unit.

Example results:
Ask | Please give the measured composite z-score for this compound: CCCC[C@H]1OB(O)C[C@H]2C1=C(COc1ccccc1)Cn1c(=O)n(-c3ccccc3)c(=O)n12
Reply | 0.292

Ask | And what about the compound Cc1ccc(C(C)CC(O)C2C=CC3C(=O)N(Cc4ccccc4)C(=O)C3N2n2cnnc2)o1 (stereo not given) ?
Reply | 0.455

Ask | Let us now turn to CCN(CC)c1ccc(N2CC=CC34O[C@@H]5/C=C\CCCOC(=O)C5[C@H]3C(=O)N(CCCCCO)[C@@H]4C2=O)cc1 (stereo not given in full)
Reply | -1.06

Ask | Same again, this time with CC(C)N1CC=CC23O[C@@H]4C=CCOC(=O)[C@@H]4[C@H]2C(=O)N(CCCCCCO)[C@@H]3C1=O (stereo not given in full)
Reply | -0.815

Ask | Record: COC(=O)C(CC#Cc1ccc2c(c1)[C@]1(C(=O)N2)[C@H](c2ccc(OCCO)cc2)N2[C@H](c3ccccc3)[C@H](c3ccccc3)OC(=O)[C@H]2[C@@H]1C(=O)O)C(=O)OC
Reply | 1.23

Ask | Entry to check: COc1ccccc1CN1C(=O)c2ccccc2[C@@]2(Cc3ccccc3N(C3CC3)C2=O)[C@@H]1c1ccc(CO)cc1
Reply | 0.117

Ask | Can you handle COc1cccc(C)c1NC(=O)O[C@H]1[C@H](OC(=O)Nc2ccccc2)[C@H](OC(=O)Nc2ccccc2)[C@@H](OC)O[C@@H]1CO next?
Reply | 1.81

Ask | COC(=O)[C@@]1(Cc2ccccc2N=[N+]=[N-])N=C(c2ccc(OCCCO)cc2)O[C@H]1c1ccccc1 , same question.
Reply | 0.694

***
Ask | Request the reported composite z-score associated with CCCN1C(=O)[C@@]2(Cc3ccccc3)N=C(c3ccc(OCCCO)cc3)O[C@H]2c2ccccc21
Reply | -0.141

Ask | And the next one, O=C1NC(=O)C2C1C=CC(C(O)c1ccc(-c3ccccc3)s1)N2Nc1ccccn1 (stereo not given) ?
Reply | 0.0183

Ask | Moving on to the next compound: C=CCC(OC(C)=O)[C@@H]1[C@@H](N(Cc2ccc(-c3ccccc3)cc2)C(=O)Cc2ccc(OC)cc2)c2cc(OCCCO)ccc2N1C(=O)c1ccc(-c2ccccc2)cc1 (stereo not given in full)
Reply | 0.36

Ask | Could you do the same for CC(C)[Si](C#C[Si](C(C)C)(C(C)C)C(C)C)(O[C@H](C)c1cn(Cc2cccc(Cl)c2)nn1)C(C)C , please?
Reply | 1.01

Ask | Item: C=C(/C(=C/C[C@@H](OC(C)=O)c1ccccc1OCCO)c1cnc2ccccc2c1)C(C)C
Reply | -0.353

Ask | Another: COc1ccc(CCNC(=O)[C@@H]2c3ccccc3C(=O)N(Cc3ccccc3C(F)(F)F)[C@H]2c2ccc(CO)cc2)cc1
Reply | -0.22
